# log10(GI50) values compiled below
test system: DU-145; experiment: In vitro cytotoxicity, NCI screen: DU-145 (Prostate); format: cell-based; conditions: Homo sapiens, read-out: GI50 values (μM conc.)
EXPERIMENTAL READOUT: log10(GI50) (log10 of the value in µM)

compound=COc1ccc(/C=C\c2cc(OC)c(OC)c(OC)c2)cc1OCC(=O)Nc1nc2ccc(C(F)(F)F)cc2s1 experimental_readout=log10(GI50) recorded_value=0.40
compound=COc1ccc(/C=C\c2cc(OC)c(OC)c(OC)c2)cc1OCC(=O)Nc1nc2ccc(OC(F)(F)F)cc2s1 experimental_readout=log10(GI50) recorded_value=0.61
compound="COc1ccc(C2CC(c3cc(OC)c(OC)c(OC)c3)=NN2C(C)=O)cc1OCC(=O)Nc1nc2ccc(C(F)(F)F)cc2s1 (stereo not shown) [Compound 10i]" experimental_readout=log10(GI50) recorded_value=0.26
compound=COc1ccc2nc(NC(=O)COc3cc(/C=C\c4cc(OC)c(OC)c(OC)c4)ccc3OC)sc2c1 experimental_readout=log10(GI50) recorded_value=0.31
compound=COc1ccc(/C=C\c2cc(OC)c(OC)c(OC)c2)cc1OCC(=O)Nc1nc2ccccc2s1 experimental_readout=log10(GI50) recorded_value=-1.00
compound=COc1ccc(/C=C/C(=O)c2cc(OC)c(OC)c(OC)c2)cc1OCC(=O)Nc1nc2ccc(OC(F)(F)F)cc2s1 experimental_readout=log10(GI50) recorded_value=0.19
compound=COc1ccc(/C=C\c2cc(OC)c(OC)c(OC)c2)cc1OCC(=O)Nc1nc2ccc(F)cc2s1 experimental_readout=log10(GI50) recorded_value=0.95
